# Tested on: KM12
# experimentDescription: NCI tumour cell line growth inhibition, 48 h
Calls of active or inactive are those of the source. Cut-off read from the data, not from the text of the source: active = GI50 up to about 1.1 µM and inactive = higher.
readoutName: GI50

The recorded GI50 for entry CN(C)C(c1ccccc1)C(O)c1ccccc1 (stereo unspecified) equals > 100 µM (inactive)

Entry Oc1ccc(Cl)cc1/N=N\c1c(O)ccc2ccccc12 ; GI50 = > 100 µM (inactive)

// recorded GI50 for CCOC(=O)C1=C(C)N(C)C(=S)NC1c1cccc(O)c1 (stereo unspecified) : 29 µM (inactive)

// COc1ccc(-n2c(C)nc3ccc(NC4OCC(OC(C)=O)C(OC(C)=O)C4OC(C)=O)cc3c2=O)cc1 (stereo unspecified) : GI50 value = > 100 µM (inactive)

Lab note: measured GI50 of Cc1ccc2c(=O)c3c(O)c4c(cc3n(C)c2c1)OC(C)(C)C=C4 was > 10 µM (inactive)

Value of measured GI50 for the entry Cc1cc2nc3ccccc3n2c2ccccc12 : > 10 µM (inactive)

Sample O=C(Nc1ccc2ncccc2c1)Nc1ccc2ncccc2c1 ; GI50 observed: > 100 µM (inactive)

Entry O=c1[nH]nc(-c2ccccc2)n1/N=C/c1ccc([N+](=O)[O-])cc1 ; GI50 = > 100 µM (inactive)

// GI50 lookup, compound = COc1ccc(CC(=O)c2cc(OC)c(OC)cc2C)cc1OC , result: > 100 µM (inactive)

For record C[N+](C)(C)CCOP(=O)(O)OP(=O)([O-])OCC1CCC(n2ccc(N)nc2=O)O1 (stereo unspecified) the listed GI50 is > 100 µM (inactive)

Just so you know, measured GI50 for Cc1ccc([N+](=O)[O-])c2c(NCC(O)CO)ccnc12 (stereo unspecified) came out at 32.2 µM (inactive)

###

Kindly supply the reported GI50 values for the records listed here.
# Test system: COLO 205
# experimentDescription: NCI tumour cell line growth inhibition, 48 h
The source made the active and inactive calls. Rule as the data show it: active = GI50 up to about 1.1 µM and inactive = higher.

Notebook: Cc1cc(NCCCCCCCNc2cc(C)nc3cc(N)ccc23)c2ccc(N)cc2n1 , GI50 read as 14 µM (inactive)

So, COc1ccc(-n2c(C)nc3ccc(NC4OCC(OC(C)=O)C(OC(C)=O)C4OC(C)=O)cc3c2=O)cc1 (stereo not given) ? Its GI50 was > 100 µM (inactive)

The compound O=c1[nH]nc(-c2ccccc2)c2[nH]c3c(c12)Cc1ccccc1-3 showed GI50 equal to 1.61 µM (inactive)

// recorded GI50 for NCCCNc1ccc2c3c(nn2CCNCCO)-c2c(O)ccc(O)c2C(=O)c13 : 1.44 µM (inactive)

// GI50 lookup, compound = CC1CC(c2ccccc2)=Nc2ccccc2S1(=O)=O (stereo not given) , result: 20.4 µM (inactive)

###

# System: NCI/ADR-RES
# experimentDescription: NCI tumour cell line growth inhibition, 48 h
The source made the active and inactive calls. No stated cut-off is given here; in the data, active = GI50 up to about 1.1 µM and inactive = higher.
Tick one outcome: active, inactive

Query :: Dear colleague, could you share the recorded outcome for Clc1ccc(Cl)c(Nc2ccnc(SCc3ccccc3)n2)c1 when you have a moment?
Result :: inactive

Query :: For this molecule, state the assay outcome: CC(=O)CC1(O)C(=O)c2c(Br)sc(Br)c2C1=O
Result :: inactive

Query :: Could you check what this test reported for CC1=CC(=O)CC(C)(C)C1(O)/C=C/C(C)=C/C(=O)O (configuration not stated) ?
Result :: inactive

Query :: // param item: Cc1cc(C2(c3cc(C)c(O)c(C(=O)O)c3)OS(=O)(=O)c3ccccc32)cc(C(=O)O)c1O ; yields the recorded call
Result :: inactive

Query :: Called result for COc1ccc(-n2c(C)nc3ccc(NC4OCC(OC(C)=O)C(OC(C)=O)C4OC(C)=O)cc3c2=O)cc1 (configuration not stated)
Result :: inactive

Query :: Which outcome was assigned to O=[N+]([O-])c1ccc2nc3c(nc2c1)-c1c2ccccc2cc2cccc-3c12 in this test?
Result :: inactive

Query :: Record lookup: outcome of this test for CCCCCCCCCCCCOC1C(COCCN2CCCC2)OC2OC(C)(C)OC21 (configuration not stated) ?
Result :: inactive

Query :: What is the recorded call for this molecule in the test? O=C(O)CCCCC1CCSS1 (stereo not drawn) [LIPOIC ACID, ALPHA]
Result :: inactive

Query :: Record lookup: outcome of this test for O=CN/C=C/c1cccc(O)c1 ?
Result :: inactive

Query :: Name the outcome recorded for Oc1ccc(Cl)cc1/N=N\c1c(O)ccc2ccccc12 in the assay.
Result :: inactive

Query :: Per the records of this test, what outcome belongs to CCN(CCCN(CC)C(=O)Nc1c(C)cccc1C)C(=O)Nc1c(C)cccc1C ?
Result :: inactive

Query :: What was the test verdict on Nc1nc(-c2ccccc2)c(-c2ccccc2)c(-c2nc(N)nc(-c3ccccc3)c2-c2ccccc2)n1 ?
Result :: inactive

Query :: Dear all, I need the recorded test outcome for COc1ccc2c(cnc3c4cc(OC)c(OC)cc4ccc23)c1 , thank you.
Result :: inactive

Query :: Hi, do you know how CSCCCN(CCCSC)CCCSC came out in this test?
Result :: inactive

Query :: Called result for CC(=O)C(C)CCOC1(C)OCCC1C (configuration not stated)
Result :: inactive

Query :: For this molecule, state the assay outcome: COC(=O)c1sc2ncc3c(c2c1N)CC(C)CC3 (configuration not stated)
Result :: inactive

Query :: How did this test come out for CC1C(c2ccc3c(c2)OCO3)c2cc3c(cc2OC1N1CCCCC1)OCO3 (configuration not stated) ?
Result :: inactive

Query :: Per the assay record, what outcome was assigned to Cc1nn(-c2ccccc2)c2c1C(c1cc3ccccc3nc1Cl)NC(=S)N2 (configuration not stated) ?
Result :: inactive

Query :: # outcome recorded in this test, key = CC(C)=CCC[C@@H](C)C1=C(O)C(O)C(C)=C2N=C(c3ccccc3)C(=O)OC21 (some centres not stated)
Result :: active

Query :: Dear all, I need the recorded test outcome for COc1ccc(/C=C/C(=O)CC(=O)/C=C/c2ccc(OC)cc2)cc1 , thank you.
Result :: inactive

Query :: Look up the recorded call for O=[N+]([O-])c1ccc(/N=N\c2c(O)ccc3ccccc23)c([N+](=O)[O-])c1 in this test.
Result :: inactive

Query :: Look up the recorded call for CCN1C(=S)n2cccc2C1CC(=O)c1ccc(Cl)cc1 (configuration not stated) in this test.
Result :: inactive

This collection of values is drawn from ChEMBL document CHEMBL1201862.
